Values were extracted from PubChem BioAssay (NCI).

- Test system: A549/ATCC NSCLC
- protocol: NCI-60 one-dose screen, 48 h (100 = growth as untreated, 0 = no growth, -100 = all killed)
- assay setup: 10 µM unless noted
About 83,000 compounds went through this panel and 20% of them were active in at least one assay; those are over-represented in the sample as a whole.
Please mark 1 (yes) if the recorded growth is equal to or greater than 30%, and 0 (no) if it falls below.

**Q:** Determine whether this compound has growth no lower than 30%: O=C(Nc1ccc(Oc2ccc(NC(=O)Nc3ccc([N+](=O)[O-])cc3)cc2)cc1)Nc1ccc([N+](=O)[O-])cc1
**A:** 0 (no)

**Q:** # bool: growth of Cc1cc2c(C#N)n3c(c2cc1C)C(=O)C(c1ccccc1)Oc1ccccc1-3 (configuration not stated) >= 30%
**A:** 0 (no)

**Q:** Could you tell me if the measured growth of COc1cc(/C=C2\COc3ccc(O)c(O)c3C2=O)cc(OC)c1 reaches 30% or more?
**A:** 0 (no)

**Q:** Form field: growth at least 30%? Entry: Cc1c(C(N)=O)sc2nc(SCC(=O)Nc3ccc(Cl)cc3)n(-c3ccccc3)c(=O)c12
**A:** 1 (yes)

**Q:** Decide: is the reported value of growth for C=Cc1nn2c(CCC(=O)c3nc4ccccc4[nH]3)nnc2s1 equal to or greater than 30%?
**A:** 1 (yes)

**Q:** Is the recorded value of growth equal to or greater than 30% for this compound? Cc1cc(C(C)(C)C)cc(C)c1CC1=NCCN1
**A:** 1 (yes)

**Q:** Answer whether growth of Clc1cccc(Cc2cn3cc(-c4ccccc4)nc3s2)c1 is greater than or equal to 30%.
**A:** 1 (yes)

**Q:** Could you please find out whether CCN(CC)c1ccc(CN(CC(=O)c2ccc(Cl)c(Cl)c2)Cc2ccccc2)cc1 has growth that meets 30% or exceeds it?
**A:** 1 (yes)

**Q:** Threshold query (growth >= 30%) on O=C1c2ccccc2-c2c1nc1ccccc1[n+]2[O-]
**A:** 1 (yes)

**Q:** Entry COc1cc(/C=C/C(=O)Nc2ccc3c(c2)/C(=C\c2cccn2C)C(=O)N3)cc(OC)c1OC : is its growth no less than 30%?
**A:** 1 (yes)

**Q:** State whether the measured growth reaches 30%, counting equality as reaching it, for COc1cc2c(C#N)n3c(c2cc1OC)C(=O)C(c1ccccc1)Oc1ccccc1-3 (configuration not stated)
**A:** 0 (no)

**Q:** Kindly determine if growth recorded for O=C(CCc1nnc2sc(Cc3ccccc3Cl)nn12)c1nc2ccccc2[nH]1 is above or exactly 30%.
**A:** 1 (yes)

**Q:** Dear colleague, could you confirm whether COc1ccc(Cn2c(NCCCN(C)C)nc(=O)n(Cc3ccc(F)cc3)c2=O)cc1 has growth at or above 30%?
**A:** 1 (yes)

**Q:** Hello, I need to know if COc1ccc(OC)c2c1[nH]c(=O)c1c3ccccc3cn21 has measured growth not below 30%. Thanks!
**A:** 0 (no)

**Q:** Quick check, growth >= 30%? O[C@@H]1Cc2ccc3ccccc3c2N[C@H](c2ccoc2)C1
**A:** 1 (yes)

**Q:** State whether the measured growth reaches 30%, counting equality as reaching it, for CCN(CC)CCCCNc1c2ccccc2[n+](C)c2c1[nH]c1ccccc12
**A:** 0 (no)

**Q:** Say whether S=C(Nc1ccc(C2=NCCN2)cc1)Nc1ccc(C2=NCCN2)cc1 shows growth of 30% or more.
**A:** 1 (yes)

**Q:** Entry OCCOc1c(Cl)cc(Cl)cc1Cl : is its growth no less than 30%?
**A:** 1 (yes)

**Q:** Hi team, for Clc1ccc2nc(Cl)c3ccccc3c2c1 , is the recorded growth at or above 30%?
**A:** 0 (no)

**Q:** Test whether the compound CCOc1cc(-c2ccc[nH]2)[nH]c1/C=C1\N=C(C)C(C(=O)OC)=C1C records growth of 30% or higher.
**A:** 0 (no)

**Q:** Tell me whether growth is at least 30% here: CCOC(Cc1c(N)[nH]c(=S)[nH]c1=O)OCC
**A:** 1 (yes)

====

- Test system: SF-295 CNS
- protocol: NCI-60 one-dose screen, 48 h (100 = growth as untreated, 0 = no growth, -100 = all killed)
- assay setup: 10 µM unless noted
Compounds without any hit were thinned out: in the full panel of roughly 83,000, 20% have a hit.
value type: growth (%)
Numeric only. Scale: %

CC(=O)c1nc2ccccc2n1CCn1cc(CC(N)C(=O)O)c2ccccc21 (configuration not stated) has a reported growth of 110

Record CCOc1ccccc1C(=O)OCC(=O)Nc1cccc(S(=O)(=O)N(C)C)c1 , field growth: 160

Recorded growth (compound Nc1ccc2c3c(cccc13)-c1ccccc1-2 ): 102

The measured growth associated with CN(CC(=O)N(Cc1ccc(C2CCCCC2)cc1)c1ccc(C(=O)O)cc1)S(=O)(=O)c1c(F)c(F)c(F)c(F)c1F reads 108

The value of growth measured for the compound CCCc1nn(C)c2c(=O)[nH]c(-c3cc(S(=O)(=O)N4CCN(C)CC4)ccc3OCC)nc12 turned out to be 93

For C[C@]12C[C@H](O)[C@H]3[C@@H](CCC4=CC(=O)CC[C@@]43C)[C@@H]1CC[C@@H]2C(=O)CO the compound record lists growth as 126

Kindly note the recorded growth for OC(Cc1cccnc1)c1ccccc1 (configuration not stated) , which is 104

Form field growth, entry Nc1nc(Cl)c2[nH]cnc2n1 : 93.7

COc1ccc(-c2c(-c3cc(OC)c(OC)c(OC)c3)noc2N)cc1 has a reported growth of 8.4

What the record says about C/C(=N\N1CC(=O)NC1=O)c1ccc([N+](=O)[O-])o1 : growth is 104

The compound listed as COc1ccc2c(c1)/C(=C\c1c[nH]c3ccc(F)cc13)C(=O)N2 shows growth equal to 100

The compound identified as c1cnc2ccc3ncccc3c2c1 registered its growth at 113

GET /value?item= CN(C)c1ccc(/C=C(\C#N)c2nc3ccccc3c(=O)[nH]2)cc1 &field=growth returns 92.9

# growth (compound: Cc1ccc2c(c1)O/C(=C\c1ccc([N+](=O)[O-])o1)C2=O ) is 94.3

Lookup result for CCCCCCCC/C=C/CCCCCCCC1=NC(C)(C)CN1CCO ; measured growth: 30.2

So for Cc1c(N(C)CS(=O)(=O)O)c(=O)n(-c2ccccc2)n1C , the logged growth turned out to be 98.9

Reported growth ( c1coc([C@@H]2C[C@@H]3Cc4ccc5ccccc5c4N2O3)c1 ) = 101

Quick note, growth for COc1ccc(-c2cc(Cc3cccs3)c(=O)n(Cn3cncn3)n2)cc1 landed at 98.9

So for O=C1NC(=O)/C(=C\c2ccccc2)C2=C1CCCC2 , the logged growth turned out to be 88.2

Record COc1ccc(CCN2CCCN3C2=Nc2ccccc2S3(=O)=O)cc1 , field growth: 14

Given item Nc1nc2ncc(CCNc3ccc(C(=O)NC(CCC(=O)O)C(=O)O)cc3)nc2c(=O)[nH]1 (configuration not stated) , the value recorded as its growth is 113

Entry CN(CCOc1ccc(CC2SC(=O)NC2=O)cc1)c1ccccn1 (configuration not stated) — recorded growth = 98.9

====

- Tested on: IGROV1 ovarian
- protocol: NCI-60 one-dose screen, 48 h (100 = growth as untreated, 0 = no growth, -100 = all killed)
- assay setup: 10 µM unless noted
- Experimental: Growth inhibition of the IGROV1 human tumor cell line is measured as a screen for anti-cancer activity. Cells are grown in 96 well plates and exposed to the test compound for 48 hours. Compounds are tested at a single concentration, which is 10^-5 M for most compounds. The reported endpoint is percent growth (GI% or GIPRCNT), where numbers from 0 - 100% represent growth inhibition, and numbers from -100% - 0 represent cell death. For example, a value of 40 represents 60% growth inhibition. […]
The panel holds about 83,000 compounds, 20% with a hit somewhere; the sample as a whole holds those more often.
value type: growth (%)
// units = %; emit number, no label

// sample O=C(Nc1nc(-c2ccccc2)cs1)c1cc(O)c(O)c(O)c1 , its growth was 33.2

// growth value for O=C(CCc1nnc(Cn2cncn2)o1)c1nc2ccccc2[nH]1 : 118

Field growth (entry Cc1ccc(C(=O)Nc2ccc(Cl)cc2C(=O)NCc2ccccc2)cc1 ) reads 84.1

Entry under test: CC(C)(C)c1ccc(C(O)CCCN2CCC(C(O)(c3ccccc3)c3ccccc3)CC2)cc1 (stereo not given) . Its growth was 34.7

The compound listed as Nc1nc(N)c([N+](=O)[O-])c(=O)[nH]1 shows growth equal to 110

# compound Nc1ccc2c3c(cccc13)-c1ccccc1-2 ; its growth = 84

// growth lookup, compound = NC(N)=NN=c1c(=O)c2ccccc2c1=O , result: 102

Noted for COc1c(O)cc2oc3cc(O)c(CC=C(C)C)c(O)c3c(=O)c2c1C/C=C(\C)CCC=C(C)C : its growth reads 81.4

Quick note, growth for CN1CCN(CC(=O)Nc2nc3c(s2)Nc2cc(Cl)c(Cl)cc2NC3=O)CC1 landed at 110

# growth (compound: CC[C@H](C)C(=O)O[C@H]1C[C@@H](C)C=C2C=C[C@H](C)[C@H](CC[C@@H]3C[C@@H](O)CC(=O)O3)[C@H]21 ) is 55.9

Data point: Fc1ccc([C@@H]2CCNC[C@H]2COc2ccc3c(c2)OCO3)cc1 ; growth = 72

The compound listed as Cc1cc(C)c(OC(=O)CSc2nc3ccccc3c(=O)n2CCc2ccccc2)cc1C shows growth equal to 89.4

COc1cc(C2C=C(c3ccc(C)cc3)Nc3nc(SC)[nH]c(=O)c32)ccc1Oc1ccnc2cc(Cl)ccc12 (stereo not given) yielded growth of 90.5

get_value(item= CN1CCN(Cc2ccc(NC(=O)c3[nH]ncc3Nc3ccnc4ccnn34)cc2)CC1 , readout=growth) returns 58.3

// field: growth; key: Cn1c(N)c(N=O)c(=O)[nH]c1=O ; value = 107

Documented growth of Clc1ccc(CCC(Cn2ccnc2)Sc2c(Cl)cccc2Cl)cc1 (stereo not given) : 59

Form field growth, entry O=C(c1nn(-c2ccc(Cl)cc2)cc1O)n1nc(C(F)(F)F)cc1-c1ccccc1 : 34.9

The recorded growth for entry COC(=O)[C@]1(C(C)C)N[C@H](c2cn(-c3ccccc3)nc2-c2ccccc2)[C@@H]2C(=O)N(c3ccc(Cl)cc3)C(=O)[C@@H]21 equals 103

Please fill in: growth reported for Cc1cc(C)c2c(c1)N1OC(C2)C[C@H]1/C=C/c1ccccc1 (stereo not given in full) = 82.3

growth measured on Cc1c(C(N)=O)sc2c1C(=O)N(Cc1ccccc1)C1=NN=C(c3ccc(Cl)cc3)CN12 = 42.6
